Target: Btk (Homo sapiens, UniProt Q06187)
Construct: purified from insect cells as a full-length construct containing a N-terminal 6X-His tag; His6 (N); made in house; host or cells: insect cells (Method C)
Sequence (Q06187 whole entry): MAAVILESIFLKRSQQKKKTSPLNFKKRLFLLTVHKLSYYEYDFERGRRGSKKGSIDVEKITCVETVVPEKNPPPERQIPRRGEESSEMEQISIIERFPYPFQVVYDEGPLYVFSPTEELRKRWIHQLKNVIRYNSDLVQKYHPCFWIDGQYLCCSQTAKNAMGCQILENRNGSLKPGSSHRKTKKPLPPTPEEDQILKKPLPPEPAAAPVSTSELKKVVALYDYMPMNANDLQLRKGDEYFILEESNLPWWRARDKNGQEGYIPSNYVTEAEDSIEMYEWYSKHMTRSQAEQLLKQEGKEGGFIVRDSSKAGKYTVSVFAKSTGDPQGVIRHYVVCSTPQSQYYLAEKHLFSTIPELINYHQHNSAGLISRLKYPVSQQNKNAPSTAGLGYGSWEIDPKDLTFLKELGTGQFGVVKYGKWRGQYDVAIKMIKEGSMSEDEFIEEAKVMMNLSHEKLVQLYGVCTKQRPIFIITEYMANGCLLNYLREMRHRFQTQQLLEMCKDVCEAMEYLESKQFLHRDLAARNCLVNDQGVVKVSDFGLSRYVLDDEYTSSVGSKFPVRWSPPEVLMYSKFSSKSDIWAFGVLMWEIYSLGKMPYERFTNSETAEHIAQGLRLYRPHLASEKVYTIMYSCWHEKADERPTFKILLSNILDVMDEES
Assay: Btk in vitro inhibitory activity (one of Method A TR-FRET, Method B electrophoretic mobility shift, Method C radiometric filter binding)
Assay type: biochemical
Conditions: wild-type Btk; read-out: Btk-WT IC50
Readings of IC50 for the listed compounds
Answer in nM, number only, no unit symbol.

Example entries begin here.
Compound: C=CC(=O)N1CC[C@@H](Nc2n[nH]c3nccc(-c4ccc(CNC(=O)c5noc(C(C)(C)C)n5)c(F)c4)c23)C1 [Compound 3]
System Under Test: Btk (Homo sapiens, UniProt Q06187)
IC50 / nM: 0.205
//
Compound: C[C@@H](NC(=O)c1noc(C(C)(C)C)n1)c1ccc(-c2ccnc3[nH]nc(N[C@@H]4CC[C@H](C)N(C(=O)N(C)C)C4)c23)cc1F [Example 191]
System Under Test: Btk (Homo sapiens, UniProt Q06187)
IC50 / nM: 0.329
//
Compound: C=CC(=O)N1CC[C@@H](Nc2n[nH]c3nccc(-c4ccc(C5(NC(=O)c6noc(C(C)(C)C)n6)CC5)cc4)c23)C1 [Compound 4]
System Under Test: Btk (Homo sapiens, UniProt Q06187)
IC50 / nM: 0.559
//
Compound: C[C@H]1CC[C@@H](Nc2n[nH]c3nccc(-c4ccc(CNC(=O)c5nc(C(C)(C)C)no5)c(F)c4)c23)CN1C(=O)N1CCOCC1 [Example 409]
System Under Test: Btk (Homo sapiens, UniProt Q06187)
IC50 / nM: 0.546

// next entry
Recorded IC50 of C=CC(=O)N1CC[C@@H](Nc2n[nH]c3nccc(-c4cccc(NC(=O)c5noc(C(C)(C)C)n5)c4CO)c23)C1 [Example 160] , please.
37.3

* * *

Readings of IC50 for the listed molecules
Target: Btk (Homo sapiens, UniProt Q06187)
Construct: purified from insect cells as a full-length construct containing a N-terminal 6X-His tag; His6 (N); made in house; host or cells: insect cells (Method C)
Experiment: Btk in vitro inhibitory activity (one of Method A TR-FRET, Method B electrophoretic mobility shift, Method C radiometric filter binding)
Assay type: biochemical
Settings: wild-type Btk; read-out: Btk-WT IC50
Answer in nM, number only, no unit symbol.

Molecule: C[C@@H](NC(=O)c1nc(C(C)(C)C)no1)c1ccc(-c2ccnc3[nH]nc(N4CCC(N)CC4)c23)cc1F [Example 188]
IC50 [nM]: 0.267

Molecule: CN(C)C(=O)N1CC[C@@H](Nc2n[nH]c3nccc(-c4ccnc(N5CCn6c(cc7c6CC(C)(C)C7)C5=O)c4CO)c23)C1 [Example 299]
IC50 [nM]: 175

Molecule: CC(=O)N[C@@H]1CCN(c2n[nH]c3nccc(-c4ccc(CNC(=O)c5ccc(C(C)(C)O)cn5)c(F)c4)c23)C1 [Example 424]
IC50 [nM]: 28.8

Molecule: CC(=O)NC1CCN(c2n[nH]c3nccc(-c4ccc([C@@H](C)NC(=O)c5cc(C(C)(C)O)on5)cc4)c23)CC1 [Example 365]
IC50 [nM]: 46.2

Recorded IC50 of C=CC(=O)N1CC[C@@H](Nc2n[nH]c3nccc(-c4cccc(NC(=O)c5ccc(C(C)(C)C)cc5)c4)c23)C1 [Example 263] , please.
11.6

Field entry: CC(C)(C)c1nc(C(=O)NCc2ccc(-c3ccnc4[nH]nc(N[C@@H]5CCCNC5)c34)cc2F)no1 [Example 69]
10.4

* * *

Target: TEC (Homo sapiens, UniProt P42680)
Sequence (P42680 whole entry): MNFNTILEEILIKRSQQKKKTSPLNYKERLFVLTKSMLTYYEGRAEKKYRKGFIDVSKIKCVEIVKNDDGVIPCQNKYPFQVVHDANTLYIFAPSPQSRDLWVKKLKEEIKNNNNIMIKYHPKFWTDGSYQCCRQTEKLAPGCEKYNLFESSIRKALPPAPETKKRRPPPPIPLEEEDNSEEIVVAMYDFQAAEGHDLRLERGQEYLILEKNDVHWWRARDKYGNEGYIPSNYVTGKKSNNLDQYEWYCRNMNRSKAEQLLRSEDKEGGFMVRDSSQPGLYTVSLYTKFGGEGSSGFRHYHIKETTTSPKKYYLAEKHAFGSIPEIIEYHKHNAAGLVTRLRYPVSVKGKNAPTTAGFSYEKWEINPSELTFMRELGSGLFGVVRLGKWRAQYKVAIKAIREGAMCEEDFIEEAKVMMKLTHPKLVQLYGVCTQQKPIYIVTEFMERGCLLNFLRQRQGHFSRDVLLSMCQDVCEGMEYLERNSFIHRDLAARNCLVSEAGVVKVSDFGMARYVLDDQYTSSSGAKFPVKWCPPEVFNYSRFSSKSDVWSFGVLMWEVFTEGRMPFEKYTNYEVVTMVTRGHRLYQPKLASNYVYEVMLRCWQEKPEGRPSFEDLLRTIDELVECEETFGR
Test: Inhibition of a panel of kinases (in vitro HotSpot kinase assay, 33P-ATP, 1 μM ATP)
Type: biochemical
Conditions: ratio of TEC IC50 to Btk IC50 (selectivity)
TEC/Btk under 500 gets T, anything at or over 500 gets F.

Mol Smiles: CC#CC(=O)N1CC(Nc2n[nH]c3nccc(-c4ccc(CNC(=O)c5noc(C(C)(C)C)n5)c(F)c4)c23)C1
Qualitative Label: F

Mol Smiles: C=CC(=O)N1CC[C@@H](Nc2n[nH]c3nccc(-c4ccc([C@H](C)NC(=O)c5noc(C(C)(C)C)n5)cc4)c23)C1
Qualitative Label: T

is_below(TEC/Btk, 500) for C=CC(=O)N[C@H]1CC[C@@H](Nc2n[nH]c3nccc(-c4ccc(CNC(=O)c5noc(C(C)(C)C)n5)c(F)c4)c23)CC1 ?
F

Field entry: C=CC(=O)N1CC[C@@H](Nc2n[nH]c3nccc(-c4cccc(NC(=O)c5noc(C(C)(C)C)n5)c4CO)c23)C1
T

Field entry: C=CC(=O)N1CC[C@@H](Nc2n[nH]c3nccc(-c4ccc([C@@H](C)NC(=O)c5noc(C(C)(C)C)n5)cc4)c23)C1
F

Field entry: CC(C)(C)c1nc(C(=O)NCc2ccc(-c3ccnc4[nH]nc(N[C@@H]5CCCNC5)c34)cc2F)no1
T

* * *

Target: Btk (Homo sapiens, UniProt Q06187)
Construct: purified from insect cells as a full-length construct containing a N-terminal 6X-His tag; His6 (N); made in house; host or cells: insect cells (Method C)
Experiment: Btk in vitro inhibitory activity (one of Method A TR-FRET, Method B electrophoretic mobility shift, Method C radiometric filter binding)
Format: biochemical
Settings: wild-type Btk; read-out: Btk-WT IC50
Experimental Readout: log10(IC50) (log10 of the value in nM)
Please interpret these as log10 of IC50 where IC50 is in nM.

Example entries begin here.
Compound: CC(C)(C)c1nc(C(=O)NCc2ccc(-c3ccnc4[nH]nc(N[C@H]5CCN(C=O)C5)c34)cc2F)no1
log10(IC50): 1.07

Compound: C[C@H]1CC[C@@H](Nc2n[nH]c3nccc(-c4ccc(CNC(=O)c5noc(C(C)(C)C)n5)c(F)c4)c23)CN1C(=O)CO
log10(IC50): -0.34

Compound: C=CC(=O)N1CCC(c2n[nH]c3nccc(-c4ccc(CNC(=O)c5noc(C(C)(C)C)n5)c(F)c4)c23)C1 (centres unmarked)
log10(IC50): -1.04

Compound: CC(C)(C)c1nc(C(=O)NCc2ccc(-c3ccnc4[nH]nc(N[C@@H]5CCNC5)c34)cc2)no1
log10(IC50): 1.51

Recorded log10(IC50) of CC(C)(C)c1cc(C(=O)NCc2ccc(-c3ccnc4[nH]nc(N[C@H]5CC[C@H](O)CC5)c34)cc2F)no1 , please.
1.65

Field entry: CN(C)C(=O)N1CC[C@@H](Nc2n[nH]c3nccc(-c4ccc(CNC(=O)c5cc(C(C)(C)C)on5)c(F)c4)c23)C1
1.41

Field entry: C=CC(=O)N1CC[C@@H](Nc2n[nH]c3nccc(-c4ccc(CNC(=O)c5ccc(C(C)(C)C)cc5)c(F)c4)c23)C1
-0.21

Field entry: C[C@H]1CC[C@@H](Nc2n[nH]c3nccc(-c4ccc(CNC(=O)c5noc(C(C)(C)C)n5)c(F)c4)c23)CN1C(=O)N(C)C
-0.44

Field entry: C=CC(=O)N1CCC(Cc2n[nH]c3nccc(-c4ccc(CNC(=O)c5noc(C(C)(C)C)n5)c(F)c4)c23)C1 (centres unmarked)
-0.25

Field entry: CCC(=O)N1CC(Nc2n[nH]c3nccc(-c4ccc(CNC(=O)c5noc(C(C)(C)C)n5)c(F)c4)c23)C1
0.11

Field entry: CC(C)(C)c1nc(C(=O)NCc2ccc(-c3ccnc4[nH]nc(N[C@@H]5CCCN(C=O)C5)c34)cc2F)no1
0.97

Field entry: C=CC(=O)N1CC[C@@H](Nc2n[nH]c3nccc(-c4ccc(CNC(=O)c5noc(C(C)(C)C)n5)cc4)c23)C1
-0.72

Field entry: CC(=O)N[C@@H]1CCN(c2n[nH]c3nccc(-c4ccc(CNC(=O)c5noc(C(C)C)n5)c(F)c4)c23)C1
0.67

Field entry: O=C(NCc1ccc(-c2ccnc3[nH]nc(N[C@@H]4CCNC4)c23)cc1F)c1ccc(C2CC2)cc1
2.70

* * *

Biological target: TEC (Homo sapiens, UniProt P42680)
Experimental Readout: pIC50
Note on pIC50: it is the negative log10 of concentration, concentration in mol/L.

Molecule: C[C@H]1CC[C@@H](Nc2n[nH]c3nccc(-c4ccc(CN5CCn6c(cc7c6CC(C)(C)C7)C5=O)c(F)c4)c23)CN1C(=O)N(C)C [Example 239]
Value Reported: 5.41
//
Molecule: C=CC(=O)N1CC[C@@H](Nc2n[nH]c3nccc(-c4ccc(CNC(=O)c5cccc(C(C)(C)C)c5)c(F)c4)c23)C1 [Compound 46]
Value Reported: 6.74
//
Molecule: C=CC(=O)N[C@@H]1CCN(c2n[nH]c3nccc(-c4ccc(CNC(=O)c5coc(C(C)C)n5)c(F)c4)c23)C1 [Example 359]
Value Reported: 7.16
//
Molecule: C[C@H]1CC[C@@H](Nc2n[nH]c3nccc(-c4ccc(CNC(=O)c5noc(C(C)(C)C)n5)c(F)c4)c23)CN1C=O [Example 68]
Value Reported: 6.59
//
Molecule: CC#CC(=O)N1CC[C@@H](Nc2n[nH]c3nccc(-c4ccc(C5(NC(=O)c6noc(C(C)(C)C)n6)CC5)cc4)c23)C1 [Compound 28]
Value Reported: 6.70
//
Molecule: CC(C)(C)c1noc(C(=O)NCc2ccc(-c3ccnc4[nH]nc(N5CCC(NS(=O)(=O)C6CC6)CC5)c34)cc2F)n1 [Example 224]
Value Reported: 6.54
//
Molecule: C=CC(=O)N1CC[C@@H](Nc2n[nH]c3nccc(-c4ccc(CNC(=O)c5ccc(C6CC6)cc5)c(F)c4)c23)C1 [Compound 40]
Value Reported: 7.33
//
Molecule: CN(C)C(=O)N1CCC[C@@H](Nc2n[nH]c3nccc(-c4ccc(CNC(=O)c5noc(C(C)(C)C)n5)c(F)c4)c23)C1 [Example 116]
Value Reported: 5.35
//
Molecule: C=CC(=O)N1CC[C@@H](Nc2n[nH]c3nccc(-c4cc(F)cc(CNC(=O)c5noc(C(C)(C)C)n5)c4)c23)C1 [Example 88]
Value Reported: 5.62
//
Molecule: CC#CC(=O)N1CC[C@@H](Nc2n[nH]c3nccc(-c4ccc(CNC(=O)c5ccc(OC)cc5)c(F)c4)c23)C1 [Example 112]
Value Reported: 7.00

Recorded pIC50 of CC(=O)N1C[C@H](Nc2n[nH]c3nccc(-c4ccc(CNC(=O)c5noc(C(C)(C)C)n5)c(F)c4)c23)CC[C@@H]1C [Example 229] , please.
6.53

Field entry: CN(C)C(=O)N1CC[C@@H](Nc2n[nH]c3nccc(-c4ccc(CNC(=O)c5cnn(C(C)(C)C)c5)c(F)c4)c23)C1 [Example 119]
5.07

Field entry: C=CC(=O)N1CCC[C@@H](Nc2n[nH]c3nccc(-c4ccc(CNC(=O)c5noc(C(C)(C)C)n5)c(F)c4)c23)C1 [Example 85]
6.96
